# system-name: T1, CFP-ARC2-3 (TNKS1) (human, mCerulean fusion omitted; conventional ARC limits)
# T1 chain: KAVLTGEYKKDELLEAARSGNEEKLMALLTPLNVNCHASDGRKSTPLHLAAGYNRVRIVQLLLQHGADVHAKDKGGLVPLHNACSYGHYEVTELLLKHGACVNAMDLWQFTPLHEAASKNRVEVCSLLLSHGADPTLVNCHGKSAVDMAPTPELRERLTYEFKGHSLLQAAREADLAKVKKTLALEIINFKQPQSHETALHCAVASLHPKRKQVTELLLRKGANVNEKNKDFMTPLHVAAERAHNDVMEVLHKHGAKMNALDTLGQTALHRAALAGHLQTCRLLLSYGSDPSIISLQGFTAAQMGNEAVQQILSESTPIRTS
# protocol-text: FRET or BRET; titration for Kd after Song et al.: CFP-fusion kept constant (50 nM to 1.1 µM), YFP-fusion 0-4,000 nM; FRET emission on excitation at 430 nm; assay buffer 10 mM Bis-Tris-Propane pH 7.0, 3% PEG20,000, 0.01% Triton-X100, 0.5 mM TCEP; 384-well plates, 4 replicates; the paper calls the constants an estimation
# condition-summary: both partners purified
observable: pKd
Lab note: report pKd as minus log10 of the concentration in molar units, number only.

*Q* State the recorded pKd for this entry: REAGDGEE (also called TBM (REAGDGEE); YFP-fused TBM; source: E. coli BL21(DE3), purified (IMAC); not shown: mCitrine (YFP), N-terminal, kept) [YFP-TBM]
*A* 7.89
